protocol.text: Ex vivo biodistribution in mice with MM1S tumor xenografts
condition.details: both sexes, NSG, mouse, liver, 80 µCi, total radioactivity, 60 min p.i.; MM1S xenograft mice; read-out: uptake in liver
result.type: tissue uptake at 1 h (%ID/g)
Field: numeric (%ID/g). Do not append units.

[ask] Given the compound CC[C@H](C)[C@@H]1NC(=O)[C@@H]2CCCN2C(=O)[C@H](Cc2ccccc2)NC(=O)[C@H](CC(=O)O)NC(=O)[C@H](C)NC(=O)[C@@H]2CSCc3cc(cc(c3)CSC[C@H](NC(=O)[C@H](C)NC(=O)CCOCCOCCOCCNC(=O)CN3CCN(CC(=O)O)CCN(CC(=O)O)CC3)C(=O)N[C@@H](C(C)C)C(=O)N3CCC[C@H]3C(=O)N2)CSC[C@@H](C(N)=O)NC(=O)[C@H](Cc2ccc(O)cc2)NC(=O)[C@H](Cc2c[nH]c3ccccc23)NC1=O [[^68Ga]Ga‐AJ206, metal not drawn] , what is its reported tissue uptake at 1 h?
[reply] 1.38

====

protocol.text: Ex vivo biodistribution in mice with MM1S tumor xenografts
condition.details: both sexes, NSG, mouse, large intestine (with contents), 80 µCi, 120 min p.i.; MM1S xenograft mice; read-out: uptake in large intestine (with contents)
result.type: tissue uptake at 2 h (%ID/g)
Field: numeric (%ID/g). Do not append units.

[ask] Given the compound CC[C@H](C)[C@@H]1NC(=O)[C@@H]2CCCN2C(=O)[C@H](Cc2ccccc2)NC(=O)[C@H](CC(=O)O)NC(=O)[C@H](C)NC(=O)[C@@H]2CSCc3cc(cc(c3)CSC[C@H](NC(=O)[C@H](C)NC(=O)CCOCCOCCOCCNC(=O)CN3CCN(CC(=O)O)CCN(CC(=O)O)CC3)C(=O)N[C@@H](C(C)C)C(=O)N3CCC[C@H]3C(=O)N2)CSC[C@@H](C(N)=O)NC(=O)[C@H](Cc2ccc(O)cc2)NC(=O)[C@H](Cc2c[nH]c3ccccc23)NC1=O [[^68Ga]Ga‐AJ206, metal not drawn] , what is its reported tissue uptake at 2 h?
[reply] 0.27

Each recorded value in this set is attributed to paper PMC11040352.
